System: Apomorphine
assay_info: Combined Apomorphine, Tryptamine and Norepinephrine (ATN) test in rats: apomorphine part
Assay type: in vivo
applied_conditions: Rattus norvegicus; read-out: Combined ATN test in rats ED₅₀ values (APO)
measured_metric: ED50 (mg/kg)
Answers are plain numbers, in mg/kg.

Lab note: need ED50 with Apomorphine for entry Cc1nc2n(C)c(C)cn2c(=O)c1CCN1CCN(c2noc3ccccc23)CC1 , please look it up.
0.08

Lab note: need ED50 with Apomorphine for entry Cc1nc2n(c(=O)c1CCN1CCC(c3noc4cc(F)ccc34)CC1)CCN2C , please look it up.
0.08

Lab note: need ED50 with Apomorphine for entry Cc1nc2n(C)ccn2c(=O)c1CCN1CCC(c2noc3cc(F)ccc23)CC1 , please look it up.
0.04

Lab note: need ED50 with Apomorphine for entry Cc1nc2n(C)ccn2c(=O)c1CCN1CCN(c2nsc3ccccc23)CC1 , please look it up.
0.08

Lab note: need ED50 with Apomorphine for entry CC(=O)Nc1nc(C)c(CCN2CCC(C(=O)c3ccc(F)cc3)CC2)c(=O)n1C , please look it up.
0.31

Lab note: need ED50 with Apomorphine for entry Cc1nc2n(c(=O)c1CCN1CCN(c3noc4ccccc34)CC1)CCCN2C , please look it up.
0.02

Lab note: need ED50 with Apomorphine for entry CCCNc1nc(C)c(CCN2CCN(c3nsc4ccccc34)CC2)c(=O)n1C , please look it up.
0.08

More entries:
Lab note: need ED50 with Apomorphine for entry CC1=NN(C)c2nc(C)c(CCN3CCN(c4noc5ccccc45)CC3)c(=O)n2C1 , please look it up.
0.08

====

Exercise: for every item that follows, state its recorded ED50.
System: Apomorphine
assay_info: Combined Apomorphine, Tryptamine and Norepinephrine (ATN) test in rats: apomorphine part
Assay type: in vivo
applied_conditions: Rattus norvegicus; read-out: Combined ATN test in rats ED₅₀ values (APO)
Numbers only, in mg/kg.

Example compounds with recorded ED50:
Lab note: need ED50 with Apomorphine for entry CC1=NN(C)c2nc(C)c(CCN3CCC(c4noc5cc(F)ccc45)CC3)c(=O)n2C1 [Compound 86] , please look it up.
0.04

Lab note: need ED50 with Apomorphine for entry Cc1nc(NCc2ccccn2)n(C)c(=O)c1CCN1CCC(c2noc3cc(F)ccc23)CC1 [Compound 19] , please look it up.
0.08

Lab note: need ED50 with Apomorphine for entry Cc1nc2n(C)ncn2c(=O)c1CCN1CCN(c2noc3ccccc23)CC1 [Compound 114] , please look it up.
0.08

Lab note: need ED50 with Apomorphine for entry CCNc1nc(C)c(CCN2CCN(c3noc4ccccc34)CC2)c(=O)n1C [Compound 69] , please look it up.
0.08

Lab note: need ED50 with Apomorphine for entry Cc1nc2n(C)ncn2c(=O)c1CCN1CCC(c2noc3cc(F)ccc23)CC1 [Compound 89] , please look it up.
0.08

Quick one: give me ED50 for each item below, same order please.
1. Cc1nc2n(C)nc(C)n2c(=O)c1CCN1CCN(c2noc3ccccc23)CC1 [Compound 113]
2. Cc1nc2n(C)nc(C)n2c(=O)c1CCN1CCC(c2noc3cc(F)ccc23)CC1 [Compound 88]
3. Cc1nc2n(c(=O)c1CCN1CCN(c3noc4ccccc34)CC1)CCN2C [Compound 115]

0.08
0.08
0.08

====

Exercise: for every item that follows, state its recorded ED50.
System: Tryptamine
assay_info: Combined Apomorphine, Tryptamine and Norepinephrine (ATN) test in rats: tryptamine part
Format: in vivo
applied_conditions: Rattus norvegicus, hyperaemia, read-out: Combined ATN test in rats ED₅₀ values (TRY) hyperaemia

Example compounds with recorded ED50:
For the compound shown here, CC(=O)Nc1nc(C)c(CCN2CCC(C(=O)c3ccc(F)cc3)CC2)c(=O)n1C [Compound 34] , give the reported ED50.
5 µg/kg

For the compound shown here, Cc1nc2n(C)nc(C)n2c(=O)c1CCN1CCN(c2noc3ccccc23)CC1 [Compound 113] , give the reported ED50.
5 µg/kg

For the compound shown here, CCNc1nc(C)c(CCN2CCN(c3noc4ccccc34)CC2)c(=O)n1C [Compound 69] , give the reported ED50.
1.25 µg/kg

For the compound shown here, Cc1nc2n(c(=O)c1CCN1CCN(c3noc4ccccc34)CC1)CCCN2C [Compound 120] , give the reported ED50.
20 µg/kg

For the compound shown here, CC1=NN(C)c2nc(C)c(CCN3CCN(c4noc5ccccc45)CC3)c(=O)n2C1 [Compound 112] , give the reported ED50.
5 µg/kg

For the compound shown here, CC1=NN(C)c2nc(C)c(CCN3CCC(c4noc5cc(F)ccc45)CC3)c(=O)n2C1 [Compound 86] , give the reported ED50.
1.25 µg/kg

For the compound shown here, CCCNc1nc(C)c(CCN2CCN(c3nsc4ccccc34)CC2)c(=O)n1C [Compound 71] , give the reported ED50.
5 µg/kg

Would you kindly look at the next entry?
For the compound shown here, Cc1nc2n(C)ccn2c(=O)c1CCN1CCC(c2noc3cc(F)ccc23)CC1 [Compound 77] , give the reported ED50.
≤ 0.63 µg/kg
